System: Hepatitis C virus
Assay: Antiviral activity against Hepatitis C virus containing NS3/4a ps31 sequence by transient cell-base protease activity
Format: functional, organism-based, Hepacivirus hominis
property measured: EC50 (nM)
Number only, in nM; omit the unit.

Value of EC50 reported for the molecule CC[C@@H]1C[C@]1(NC(=O)[C@@H]1C[C@@H]2CN1C(=O)[C@H](C(C)(C)C)NC(=O)OCC(C)(C)CCCCc1cccc3c1CN(C3)C(=O)O2)C(=O)NS(=O)(=O)C1CC1 is 3.4

###

Assay: Metabolic stability in dog liver assessed as drug level at 5 mg/kg, po after 24 hrs by LC/MS/MS analysis
Assay type: ADME, organism-based, Canis lupus familiaris
Set-up: dose 5 mg/kg, route oral
Conditions: read-out: Drug uptake
property measured: concentration at 24 h

CC[C@@H]1C[C@]1(NC(=O)[C@@H]1C[C@@H]2CN1C(=O)[C@H](C(C)(C)C)NC(=O)OCC(C)(C)CCCCc1cccc3c1CN(C3)C(=O)O2)C(=O)NS(=O)(=O)C1CC1 [VANIPREVIR] yielded concentration at 24 h of 0.6 µM

###

Experiment: Volume of distribution in rat at 2 mg/kg, iv by LC/MS/MS analysis
Assay type: ADME, organism-based
Set-up: dose 2 mg/kg, route intravenous
Conditions: in vivo
property measured: Vd (L/kg)
Write it as a number; the unit L/kg goes unstated.

Note to self: Vd recorded for CC[C@@H]1C[C@]1(NC(=O)[C@@H]1C[C@@H]2CN1C(=O)[C@H](C(C)(C)C)NC(=O)OCC(C)(C)CCCCc1cccc3c1CN(C3)C(=O)O2)C(=O)NS(=O)(=O)C1CC1 was 1.9

Data credit: ChEMBL document CHEMBL1240347
